Provide the reported rHep CLint of each item.
assay: Metabolic stability in rat hepatocytes (rHep); conditions: n = 1 or geometric mean of n = 2-3

The reported value for C[C@@H]1CN(c2ccc3nccc(C(=O)NCC(=O)N4CSC[C@H]4C#N)c3c2)C[C@H]1C (single isomer, unassigned) [Example 226] in terms of rHep CLint is 44 μL/min/1E6

The reported value for N#C[C@@H]1CSCN1C(=O)CNC(=O)c1ccnc2ccc(-n3ccnc3-c3ccccc3)cc12 in terms of rHep CLint is 37 μL/min/1E6

The reported value for N#C[C@@H]1CSCN1C(=O)CNC(=O)c1ccnc2ccc(-c3ccnn3[C@H]3CCCCO3)cc12 (mixture of isomers) in terms of rHep CLint is 15 μL/min/1E6

The reported value for N#C[C@@H]1CSCN1C(=O)CNC(=O)c1ccnc2ccc(N3CCOCC34CCC4)cc12 in terms of rHep CLint is 28 μL/min/1E6

The reported value for N#C[C@@H]1CSCN1C(=O)CNC(=O)c1ccnc2ccc(N3C[C@H](O)C(F)(F)C3)cc12 (mixture of isomers) in terms of rHep CLint is <1 μL/min/1E6

The reported value for C[C@H]1COC[C@H](C)N1c1ccc2nccc(C(=O)NCC(=O)N3CSC[C@H]3C#N)c2c1 in terms of rHep CLint is 23 μL/min/1E6

The reported value for N#C[C@@H]1CSCN1C(=O)CNC(=O)c1ccnc2ccc(N3CCOC[C@@H]3C(F)(F)F)cc12 (single isomer, unassigned) [Example 85] in terms of rHep CLint is 35 μL/min/1E6

The reported value for C[C@@H]1CCN(c2ccc3nccc(C(=O)NCC(=O)N4CSC[C@H]4C#N)c3c2)C1=O (single isomer, unassigned) in terms of rHep CLint is <1 μL/min/1E6

The reported value for CC1CN(c2ccc3nccc(C(=O)NCC(=O)N4CSC[C@H]4C#N)c3c2)C1 in terms of rHep CLint is 14 μL/min/1E6

The reported value for CC1CC2(C1)CN(c1ccc3nccc(C(=O)NCC(=O)N4CSC[C@H]4C#N)c3c1)C2 in terms of rHep CLint is 7 μL/min/1E6

The reported value for CC(C)OC1CCN(c2ccc3nccc(C(=O)NCC(=O)N4CSC[C@H]4C#N)c3c2)CC1 in terms of rHep CLint is 9.1 μL/min/1E6

The reported value for N#C[C@@H]1CSCN1C(=O)CNC(=O)c1ccnc2ccc(N3C[C@@H]4C[C@H]3CO4)cc12 in terms of rHep CLint is 6.7 μL/min/1E6

The reported value for N#C[C@@H]1CSCN1C(=O)CNC(=O)c1ccnc2ccc(-c3cccnc3)cc12 in terms of rHep CLint is 10 μL/min/1E6

The reported value for N#C[C@@H]1CSCN1C(=O)CNC(=O)c1ccnc2ccc(N3C[C@H]4C[C@@H]3CO4)cc12 in terms of rHep CLint is 3.5 μL/min/1E6

The reported value for C[C@@H]1CN(c2ccc3nccc(C(=O)NCC(=O)N4CSC[C@H]4C#N)c3c2)CCO1 in terms of rHep CLint is 2.7 μL/min/1E6

The reported value for COC[C@@H]1[C@@H](C)OCCN1c1ccc2nccc(C(=O)NCC(=O)N3CSC[C@H]3C#N)c2c1 in terms of rHep CLint is 19 μL/min/1E6

The reported value for N#C[C@@H]1CSCN1C(=O)CNC(=O)c1ccnc2ccc(N3CC4(CC(C(F)(F)F)C4)C3)cc12 in terms of rHep CLint is 5 μL/min/1E6

The reported value for CC1(C)CCN1c1ccc2nccc(C(=O)NCC(=O)N3CSC[C@H]3C#N)c2c1 in terms of rHep CLint is 120 μL/min/1E6

The reported value for N#C[C@@H]1CSCN1C(=O)CNC(=O)c1ccnc2ccc(N3CC(CF)C3)cc12 in terms of rHep CLint is 11 μL/min/1E6

The reported value for CC1(C)CN(c2ccc3nccc(C(=O)NCC(=O)N4CSC[C@H]4C#N)c3c2)CCO1 in terms of rHep CLint is 8.6 μL/min/1E6

The reported value for COc1ccc(-c2ccc3nccc(C(=O)NCC(=O)N4CSC[C@H]4C#N)c3c2)cn1 in terms of rHep CLint is 7.2 μL/min/1E6

The reported value for N#C[C@@H]1CSCN1C(=O)CNC(=O)c1ccnc2ccc(N3CCCC4(CC4)C3)cc12 in terms of rHep CLint is 72 μL/min/1E6
